What solubility was measured for each of the following?
Test: Aqueous solubility of the compound
Assay type: physicochemical
One number for each entry, in µg/mL.

> print(dat)
                                   molecule  attribute.measured  endpoint.result
1  C[C@@H]1CN(c2c(C#N)c(C(F)F)nn2-c2ccc(S(C)(=O)=O)cc2)[C@H](C)CO1 (relative stereo)          solubility               50
2  C[C@@H]1CN(c2cc(C(F)(F)F)nn2-c2ccc(S(C)(=O)=O)cn2)[C@H](C)CO1 (relative stereo)          solubility              100
3  CS(=O)(=O)c1ccc(-n2nc(C(F)(F)F)cc2-c2ccccc2)nc1          solubility               50

// each listed molecule needs a value for solubility
1. CS(=O)(=O)c1ccc(-n2nc(C(F)F)c(C#N)c2NC2CCCC2)cc1
2. CC(C)COc1cc(C(F)(F)F)nn1-c1ccc(S(C)(=O)=O)cn1

Return:
1: 100; 2: 50

---

Test: Aqueous solubility of the compound
Assay type: physicochemical
What solubility was measured for each of the following?
Give bare numbers, in µg/mL.

> print(dat)
                                   molecule  unit.of.measurement  endpoint.result
1  CS(=O)(=O)c1ccc(-n2nc(C(F)(F)F)cc2OC2CCCC2)cc1                µg/mL               25
2  CS(=O)(=O)c1ccc(-n2nc(C(F)(F)F)cc2OCC2CCC2)cc1                µg/mL               25

// each listed molecule needs a value for solubility
1. CCC(C)Oc1c(C#N)c(C(F)(F)F)nn1-c1ccc(S(C)(=O)=O)cc1 (stereo not given)
2. CS(=O)(=O)c1ccc(-n2nc(C(F)(F)F)cc2NC2CCCC2)nc1
3. CS(=O)(=O)c1ccc(-n2nc(C(F)F)c(C#N)c2-c2cc(F)cc(F)c2)nc1
4. CS(=O)(=O)c1ccc(-n2nc(C(F)(F)F)cc2OC2CCCC2)nc1

Return:
1: 50; 2: 25; 3: 50; 4: 50

Short answer for CS(=O)(=O)c1ccc(-n2nc(C(F)(F)F)cc2OCC2CCC2)nc1 : solubility was 100

---

Assay: Aqueous solubility of the compound
Type: physicochemical
What solubility was measured for each of the following?
Give bare numbers, in µg/mL.

> print(dat)
                                   compound  endpoint.result
1  CS(=O)(=O)c1ccc(-n2nc(C(F)F)c(C#N)c2NC2CCCC2)nc1               25
2  CC1CCCN(c2c(C#N)c(C(F)(F)F)nn2-c2ccc(S(C)(=O)=O)cn2)C1 (stereo not given)              100
3  CC(C)(C)COc1cc(C(F)(F)F)nn1-c1ccc(S(C)(=O)=O)cn1              100
4  CC1CCCN(c2c(C#N)c(C(F)F)nn2-c2ccc(S(C)(=O)=O)cc2)C1 (stereo not given)               50
5  CS(=O)(=O)c1ccc(-n2nc(C(F)(F)F)c(C#N)c2-c2ccccc2)nc1              100

// next entry
Short answer for CC(C)(C)COc1cc(C(F)(F)F)nn1-c1ccc(S(C)(=O)=O)cc1 : solubility was 50

Each recorded value in this set is attributed to ChEMBL document CHEMBL1138428.
